Item-by-item account of IC50
assay-system: Cathepsin K (Homo sapiens)
method-summary: Study of Cathepsin K inhibition (fluorescence, Z-Val-arg-AMC)
Format: biochemical
condition-context: substrate Z-Val-arg-AMC 20 μM, enzyme 5 ng/ml, 2H at ambient temperature; read-out: Cathepsin K IC50
The figure you give is taken to be in µM; do not add the unit.

Documented IC50 of C=CCOC(=O)CC[C@H](NC(=O)[C@@H]1CCCN2C(=O)CC[C@H](NS(=O)(=O)c3ccc(C(F)(F)F)cc3)C(=O)N12)C(=O)C=[N+]=[N-] : 6

# molecule O=C(Nc1ccc(Oc2ccccc2)cc1)N[C@H]1CCC(=O)N2CCC[C@@H](C(=O)N[C@@H](Cc3ccccc3)C(=O)CSc3nnnn3-c3ccccc3)N2C1=O ; its IC50 = 20

Entry CC(C)C[C@H](NC(=O)[C@@H]1CCCN2C(=O)CC[C@H](NS(=O)(=O)c3ccc4ccccc4c3)C(=O)N12)C(=O)C=[N+]=[N-] , IC50 reported as 10

---

assay-system: Cathepsin K (Homo sapiens)
method-summary: Study of Cathepsin K inhibition (fluorescence, Z-Val-arg-AMC)
Assay type: biochemical
condition-context: substrate Z-Val-arg-AMC 20 μM, enzyme 5 ng/ml, 2H at ambient temperature; read-out: Cathepsin K IC50
pIC50: −log10 of the molar value.
Mark TRUE for reported pIC50 of 5 or greater; mark FALSE for anything smaller.

molecule: C[C@H](NC(=O)[C@@H]1CCCN2C(=O)CC[C@H](NC(=O)NC3CCCCC3)C(=O)N12)C(=O)COC(=O)c1c(Cl)cccc1Cl [Example 433]
answer-label: FALSE

Challenge: Evaluate CC(C)[C@H](NC(=O)[C@@H]1CCCN2C(=O)CC[C@H](NC(=O)Nc3ccc(Oc4ccccc4)cc3)C(=O)N12)C(=O)CSc1nnnn1-c1ccccc1 [Example 389] : pIC50 at minimum 5?
Response given: FALSE

Challenge: For this molecule, is measured pIC50 5 or higher? CC(C)C[C@H](NC(=O)[C@@H]1CCCN2C(=O)CC[C@H](NS(C)(=O)=O)C(=O)N12)C(=O)C=[N+]=[N-] [Example 346]
Response given: TRUE

Challenge: Check the entry C=CCOC(=O)CC[C@H](NC(=O)[C@@H]1CCCN2C(=O)CC[C@H](NC(=O)Nc3ccc(Oc4ccccc4)cc3)C(=O)N12)C(=O)COC(=O)c1ccncc1 [Example 131] : does pIC50 equal or exceed 5?
Response given: TRUE

Challenge: Textbook exercise: given the entry C=CCOC(=O)CC[C@H](NC(=O)[C@@H]1CCCN2C(=O)CC[C@H](NC(=O)c3cccc(OC)c3)C(=O)N12)C(=O)C=[N+]=[N-] [Example 39] , state whether its pIC50 is greater than or equal to 5.
Response given: TRUE

---

assay-system: Cathepsin K (Homo sapiens, UniProt P43235)
method-summary: Study of Cathepsin K inhibition (fluorescence, Z-Val-arg-AMC)
Format: biochemical
condition-context: substrate Z-Val-arg-AMC 20 μM, enzyme 5 ng/ml, 2H at ambient temperature; read-out: Cathepsin K IC50
observation-type: IC50 (µM)
Response body: numeric value in µM, unit text excluded.

Example results:
compound: C=CCOC(=O)CC[C@H](NC(=O)[C@@H]1CCCN2C(=O)CC[C@H](NS(=O)(=O)c3ccc4ccccc4c3)C(=O)N12)C(=O)C=[N+]=[N-]
IC50 [µM]: 5

compound: COC(=O)CCCC(=O)OCC(=O)[C@H](Cc1ccccc1)NC(=O)[C@@H]1CCCN2C(=O)CC[C@H](NC(=O)Nc3ccc(Oc4ccccc4)cc3)C(=O)N12
IC50 [µM]: 20

For C=CCOC(=O)CC[C@H](NC(=O)[C@@H]1CCCN2C(=O)CC[C@H](NC(=O)Nc3ccc(Oc4ccccc4)cc3)C(=O)N12)C(=O)C=[N+]=[N-] the compound record lists IC50 as 1.5

---

assay-system: UniProt P00784
Sequence (P00784 134-345): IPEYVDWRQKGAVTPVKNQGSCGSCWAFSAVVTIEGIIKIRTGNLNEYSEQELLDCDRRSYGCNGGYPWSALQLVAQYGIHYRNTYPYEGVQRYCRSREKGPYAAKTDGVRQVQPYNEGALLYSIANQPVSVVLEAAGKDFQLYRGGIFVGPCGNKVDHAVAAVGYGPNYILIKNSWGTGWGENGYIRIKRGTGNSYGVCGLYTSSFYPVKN
observation-type: IC50
A bare number is not enough; add the unit after it.

compound: [N-]=[N+]=CC(=O)[C@H](Cc1ccccc1)NC(=O)[C@@H]1CCCN2C(=O)CC[C@H](NS(=O)(=O)c3ccc(-c4ccon4)s3)C(=O)N12 [Example 166]
observation-type: IC50
result: 2 µM
//
compound: [N-]=[N+]=CC(=O)[C@H](Cc1ccccc1)NC(=O)[C@@H]1CCCN2C(=O)CC[C@H](NC(=O)Nc3ccc(Oc4ccccc4)cc3)C(=O)N12 [Example 161]
observation-type: IC50
result: 19 µM
//
compound: CC(C)[C@H](NC(=O)[C@@H]1CCCN2C(=O)CC[C@H](NC(=O)Nc3ccc(Oc4ccccc4)cc3)C(=O)N12)C(=O)CSc1nnnn1-c1ccccc1 [Example 389]
observation-type: IC50
result: 6 µM
//
compound: O=C(Nc1ccc(Oc2ccccc2)cc1)N[C@H]1CCC(=O)N2CCC[C@@H](C(=O)N[C@@H](Cc3ccccc3)C(=O)CSc3nnnn3-c3ccccc3)N2C1=O [Example 211]
observation-type: IC50
result: 6 µM

Measured IC50 for this entry COC(=O)CCCC(=O)OCC(=O)[C@H](Cc1ccccc1)NC(=O)[C@@H]1CCCN2C(=O)CC[C@H](NC(=O)Nc3ccc(Oc4ccccc4)cc3)C(=O)N12 [Example 217] on UniProt P00784: 7 µM

---

Below, each entry is listed alongside its reported IC50.
assay-system: Cathepsin K (Homo sapiens)
Sequence (P43235 115-329): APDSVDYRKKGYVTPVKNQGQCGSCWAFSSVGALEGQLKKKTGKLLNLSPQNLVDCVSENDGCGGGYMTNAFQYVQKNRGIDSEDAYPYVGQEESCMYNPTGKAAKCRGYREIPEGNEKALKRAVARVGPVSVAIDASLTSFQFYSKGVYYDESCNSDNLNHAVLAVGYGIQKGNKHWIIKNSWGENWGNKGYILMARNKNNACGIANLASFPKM
method-summary: Study of Cathepsin K inhibition (fluorescence, Z-Val-arg-AMC)
Assay type: biochemical
condition-context: substrate Z-Val-arg-AMC 20 μM, enzyme 5 ng/ml, 2H at ambient temperature; read-out: Cathepsin K IC50
# number only, unit µM dropped from output

In the examples that follow, each entry is paired with its recorded IC50.
compound: O=C(N[C@H]1CCC(=O)N2CCC[C@@H](C(=O)N[C@@H](Cc3ccccc3)C(=O)COC(=O)c3c(Cl)cccc3Cl)N2C1=O)c1ccco1 [Example 192]
IC50 [µM]: 20
--
compound: CC(C)[C@H](NC(=O)[C@@H]1CCCN2C(=O)CC[C@H](NC(=O)c3ccco3)C(=O)N12)C(=O)CSc1nc2ccccc2s1 [Example 374]
IC50 [µM]: 20

Next, consider the following compound.
Sure, the documented IC50 for C=CCOC(=O)CC[C@H](NC(=O)[C@@H]1CCCN2C(=O)CC[C@H](NS(=O)(=O)c3ccc(C(F)(F)F)cc3)C(=O)N12)C(=O)CN1CCN(CC(=O)N2CCCC2)CC1 [Example 107] is 20

---

Below is a list of entries, each paired with its recorded IC50 value.
assay-system: Cathepsin K (Homo sapiens)
method-summary: Study of Cathepsin K inhibition (fluorescence, Z-Val-arg-AMC)
Type: biochemical
condition-context: substrate Z-Val-arg-AMC 20 μM, enzyme 5 ng/ml, 2H at ambient temperature; read-out: Cathepsin K IC50
Respond numerically; units are µM and should not be typed.

# annotated cases, reported IC50 shown
compound: [N-]=[N+]=CC(=O)[C@H](Cc1ccccc1)NC(=O)[C@@H]1CCCN2C(=O)CC[C@H](NS(=O)(=O)c3ccc(-c4ccon4)s3)C(=O)N12
assay-system: Cathepsin K (Homo sapiens)
IC50 [µM]: 20
//
compound: CS(=O)(=O)N[C@H]1CCC(=O)N2CCC[C@@H](C(=O)N[C@@H](Cc3ccccc3)C(=O)COC(=O)c3c(Cl)cccc3Cl)N2C1=O
assay-system: Cathepsin K (Homo sapiens)
IC50 [µM]: 20

The compound listed as C=CCOC(=O)CC[C@H](NC(=O)[C@@H]1CCCN2C(=O)CC[C@H](NC(=O)Nc3ccc(Oc4ccccc4)cc3)C(=O)N12)C(=O)COC(=O)c1c(Cl)cccc1Cl shows IC50 equal to 20

Sure, the documented IC50 for CC(C)[C@H](NC(=O)[C@@H]1CCCN2C(=O)CC[C@H](NC(=O)Nc3ccc(Oc4ccccc4)cc3)C(=O)N12)C(=O)CSc1nc2ccccc2s1 is 20

In plain terms, C[C@H](NC(=O)[C@@H]1CCCN2C(=O)CC[C@H](NC(=O)Nc3ccc(Oc4ccccc4)cc3)C(=O)N12)C(=O)COC(=O)c1c(Cl)cccc1Cl has a documented IC50 of 20

Record C[C@H](NC(=O)[C@@H]1CCCN2C(=O)CC[C@H](NC(=O)NCCc3cccs3)C(=O)N12)C(=O)COC(=O)c1c(Cl)cccc1Cl , field IC50: 20

Lab note: measured IC50 of C[C@H](NC(=O)[C@@H]1CCCN2C(=O)CC[C@H](NC(=O)Nc3ccc(Oc4ccccc4)cc3)C(=O)N12)C(=O)C=[N+]=[N-] was 8
